B1: LINE1-full (parent)
chain: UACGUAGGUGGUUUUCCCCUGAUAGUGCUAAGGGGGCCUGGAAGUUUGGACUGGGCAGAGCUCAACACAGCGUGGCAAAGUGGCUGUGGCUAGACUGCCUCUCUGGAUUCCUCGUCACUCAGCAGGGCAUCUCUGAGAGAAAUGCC

variants of: B1; experiment: self-cleavage, relative activity (ratio to wild type); higher = more cleavage; in vitro, sequencing; the parent is a self-cleaving ribozyme
Binary classification by self-cleavage, with 0.9 as an inclusive lower bound for YES; all other cases are NO.

Exercise: Is it the case that UACGUAGGUGGUUUUCCCCUGAUAGUGCUAAGGGGGCCUGGAAGUUUGGACUGGGCAGAGCUCAACACAGCGAGGCAAAGUGGCUGUGGCUAGACUGCCUCUCUGGAUUCCUCGUCACUCAGCAGGGCAACUCUGAGAGAAAUGCC [U73A U130A] has self-cleavage reaching or exceeding 0.9?
Key: YES

Exercise: Form field: self-cleavage at least 0.9? Entry: UACGUAGGUGGUUUUCCCCUGAUAGUGCUAAGGGGGCCUGGAAGCUUGGACUGGGCAGAGCUCAACACAGCGUGGCAAAGUGGCUGUGGCUAGACUGCCUCUCUGGAUUCCUCGUCACUCAGCAGGGUAUCUCUGAGAGAAAUGCC [U45C C128U]
Key: YES

Exercise: // inclusive: self-cleavage at least 0.9? input: UACGUAGGUGGUUUUCCCCUGAUAGUGCUAAGGGGGCCUGGAAGUUUGGACUGGGCAGAGCUCAACACAGCGUGGCAAAGUGGCUGCGGCUAGACUGCCUCUCUGGAUUCCUCGUCACUCAGCAGGGCAUCUCUGAGAGAAUUGCC [U87C A142U]
Key: NO

Exercise: Does the variant UACGUAGGUGGUUUUCCCCUGAUAGUGCUAAGGGGGCCUGGAAGUAUGGACUGGGCAGAGCUCAACACAGCGUGGCAAAGUGGCUGUGGCCAGACUGCCUCUCUGGAUUCCUCGUCACUCAGCAGGGCAUCUCUGAGAGAAAUGCC [U46A U91C] have recorded self-cleavage that is 0.9 or more?
Key: NO

Exercise: Does UACGUAGGUGGUUUUCCCCUGAUAGUGCUAAGGGGGCCUGGAAGUUAGGACUGGGUAGAGCUCAACACAGCGUGGCAAAGUGGCUGUGGCUAGACUGCCUCUCUGGAUUCCUCGUCACUCAGCAGGGCAUCUCUGAGAGAAAUGCC [U47A C56U] have a reported self-cleavage of at least 0.9?
Key: NO

Exercise: Quick check: does UACGUAGGUGGUUUUCCCCUGAUAGUGCUAAGGGGGCCUGGACGUUUGGACUGGGCAGAGCUCAACACAGCGUGGCAAAGUGGCUGUGGCUAGGCUGCCUCUCUGGAUUCCUCGUCACUCAGCAGGGCAUCUCUGAGAGAAAUGCC [A43C A94G] have self-cleavage greater than or equal to 0.9?
Key: NO

Exercise: I'd appreciate it if you could say whether UACGUAGGUGGUUUUCCCCUGAUAGUGCUAAGGGGGCCUGGAAGUUUGGACUGGGCGGAGCUCAACACAGCGUGGCAAAGUGGCUGUGGCUAGACUGCCUCUCUGGAUUCCUCGUCACUCAGCAGGGCAUCUCUGUGAGAAAUGCC [A57G A136U] has self-cleavage at least equal to 0.9.
Key: YES

Exercise: Answer whether self-cleavage of UACGUAGGUGGUUUUCCCCUGAUAGUGCUAAGGGGGCCUGGAAGUUUGGACUGGGCAGAGCUCAACACAGCGUGGCAAAGUGGCUGUGGCUAGACUGCCUCCCUGGAUUCCUCGACACUCAGCAGGGCAUCUCUGAGAGAAAUGCC [U102C U115A] is greater than or equal to 0.9.
Key: YES

Exercise: Does the variant UACGUAGGUGGUUUUCCCCUGAUAGUGCUAAGGGGGCCUGGAAGUUUGGACUGGGCAGAGCUCAACACAGCGUGGCAAAGUGGCUGUGGCUAGACUGCCUCUCUGGAUUGCUCGUCACUCAGCAGGGCGUCUCUGAGAGAAAUGCC [C110G A129G] have recorded self-cleavage that is 0.9 or more?
Key: YES
